- Measurement target: full-length USP7 (Homo sapiens (Human), UniProt Q93009)
- Sequence (Q93009 whole entry): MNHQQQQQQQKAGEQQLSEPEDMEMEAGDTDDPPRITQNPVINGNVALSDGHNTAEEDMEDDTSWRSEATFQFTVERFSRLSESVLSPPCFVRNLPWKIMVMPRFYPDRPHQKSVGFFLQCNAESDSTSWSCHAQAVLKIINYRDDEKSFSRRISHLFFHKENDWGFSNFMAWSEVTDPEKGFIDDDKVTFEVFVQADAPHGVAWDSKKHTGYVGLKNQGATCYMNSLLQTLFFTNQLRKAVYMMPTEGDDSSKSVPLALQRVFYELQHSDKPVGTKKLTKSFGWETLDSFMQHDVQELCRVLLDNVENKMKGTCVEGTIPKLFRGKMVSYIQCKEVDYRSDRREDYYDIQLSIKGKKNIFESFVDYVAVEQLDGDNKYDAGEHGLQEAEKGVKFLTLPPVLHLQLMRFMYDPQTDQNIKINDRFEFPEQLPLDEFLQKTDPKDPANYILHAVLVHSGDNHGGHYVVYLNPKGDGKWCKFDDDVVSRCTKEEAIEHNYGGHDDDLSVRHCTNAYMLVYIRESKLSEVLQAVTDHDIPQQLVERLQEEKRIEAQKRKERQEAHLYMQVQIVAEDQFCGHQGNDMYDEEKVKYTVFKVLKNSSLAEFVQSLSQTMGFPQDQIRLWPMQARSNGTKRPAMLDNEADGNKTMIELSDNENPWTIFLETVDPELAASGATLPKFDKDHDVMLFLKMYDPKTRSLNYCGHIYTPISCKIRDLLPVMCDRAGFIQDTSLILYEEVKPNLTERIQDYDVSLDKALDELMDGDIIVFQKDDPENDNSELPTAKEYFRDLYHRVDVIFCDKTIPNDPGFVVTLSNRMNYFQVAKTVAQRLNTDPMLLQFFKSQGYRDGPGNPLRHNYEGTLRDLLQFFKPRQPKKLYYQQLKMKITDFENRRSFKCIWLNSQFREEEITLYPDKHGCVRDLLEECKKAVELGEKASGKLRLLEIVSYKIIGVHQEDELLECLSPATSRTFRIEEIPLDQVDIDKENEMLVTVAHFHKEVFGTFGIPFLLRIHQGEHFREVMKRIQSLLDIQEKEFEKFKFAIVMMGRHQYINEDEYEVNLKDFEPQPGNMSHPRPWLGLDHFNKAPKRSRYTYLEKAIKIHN
Structures can show the parent of a compound that is named as a salt.
// reported IC50 for each item listed

Recorded IC50, per entry:
- Compound: "Cc1cc(C(F)(F)F)nc(-c2ccnc3cc(CN4C(=O)C5C(C4=O)C5(C)C)sc23)c1C(=O)N1CCNC[C@@H]1C (stereo partly drawn) [Example 78, dihydrochloride]"
  IC50: "< 0.5 µM"
- Compound: "Cc1cc(C(F)(F)F)nc(-c2ccnc3cc(CN4C(=O)C5C(C4=O)C5(C)C)sc23)c1C(=O)N1CCC2(CCCN2)C1 (stereo not drawn) [Example 71, dihydrochloride]"
  IC50: "< 0.5 µM"
- Compound: "Cc1c(Cl)cc(-c2ccnc3cc(CN4C(=O)C5C(C4=O)C5(C)C)sc23)n1C[C@@H]1CNCCO1 (stereo partly drawn) [Example 162, hydrochloride]"
  IC50: "< 0.5 µM"
- Compound: "Cc1cc(C(F)(F)F)nc(-c2ccnc3cc(CN4C(=O)C5C(C4=O)C5(C)C)sc23)c1C[C@@H]1CN(C)CCO1 (stereo partly drawn) [Example 98, dihydrochloride]"
  IC50: "< 0.5 µM"
- Compound: "Cc1nc(C#N)cc(-c2ccnc3cc(CN4C(=O)C5C(C4=O)C5(C)C)sc23)c1C(=O)N1CC(F)(F)C1 (stereo not drawn) [Example 19, 2,2,2-trifluoroacetate]"
  IC50: "0.5 to 1 µM"

Now turn to the next compound.
Query string: // IC50 lookup, key: Cc1cc(C#N)nc(-c2ccnc3cc(CN4C(=O)C5C(C4=O)C5(C)C)sc23)c1C(=O)N1CCNC[C@H]1C (stereo partly drawn) [Example 54, hydrochloride]
Result string: 0.5 to 1 µM
